Assay read-out IC50 on Serine/threonine-protein kinase pim-1 (Homo sapiens); records merged from the literature.
measured-endpoint: IC50

>>> reported_result("CS(=O)(=O)c1cccc(-c2ccc(N)c(-c3cc4c(N5CCC[C@H](N)C5)ccnc4cn3)n2)c1")
"4 nM"
>>> reported_result("CC(C)Oc1cc(F)c(-c2nc(C(=O)Nc3cnccc3[C@@H]3C[C@H](C)C[C@H](N)C3)ccc2F)c(F)c1")
"0.02 nM"
>>> reported_result("c1cc2cn[nH]c2cc1-c1cnc2ccc(NC3CCOCC3)nn12")
"829 nM"
>>> reported_result("CCOc1ccc2cc(N)c(C(=O)Nc3cnccc3N3C[C@@H](N)[C@H](O)[C@@H](C)C3)nc2n1")
"≤ 100 nM"
>>> reported_result("C[C@@H]1C[C@H](N)C[C@H](c2ccncc2NC(=O)c2ccc(F)c(-c3c(F)cc(OCC4(C#N)CCOCC4)cc3F)n2)C1")
"0.02 nM"
>>> reported_result("Brc1c(Br)c(Br)c2[nH]c(N3CCN(CCN4CCCCC4)CC3)nc2c1Br")
"117 nM"
>>> reported_result("CCc1ccc2cc(N)c(C(=O)Nc3cnccc3N3C[C@@H](N)[C@@H](NC(=O)OC)[C@@H](C)C3)nc2c1")
"≤ 100 nM"

----------
Assay read-out log10 of IC50 on Serine/threonine-protein kinase pim-1 (Homo sapiens, UniProt P11309); records merged from the literature.
measured-endpoint: log10 of IC50 (log10 of the value in nM)

>>> reported_result("NCC1CCN(c2cc(F)cc3ccc(-c4nnc5ccccn45)nc23)CC1")
0.48
>>> reported_result("COc1ccn2c(-c3ccc4cccc(N5CCOCC5)c4n3)nnc2c1")
3.45
>>> reported_result("COCCOc1ccc(F)c(-c2nc(C(=O)Nc3cnccc3[C@@H]3C[C@H](C)C[C@H](N)C3)ccc2F)c1F")
-1.40
>>> reported_result("C[C@H]1CN(c2ccncc2NC(=O)c2ccc(F)c(-c3c(F)cc(OCCO)cc3F)n2)C[C@@H](N)[C@@H]1O")
-1.70
>>> reported_result("COC(C)(C)COc1cc(F)c(-c2nc(C(=O)Nc3cnccc3[C@@H]3C[C@H](C)C[C@H](N)C3)ccc2F)c(F)c1")
-1.70
>>> reported_result("C[C@H]1CN(c2ccncc2NC(=O)c2ccc(F)c(-c3c(F)cc([C@@H](O)CO)cc3F)n2)C[C@@H](N)[C@@H]1O")
-1.40
>>> reported_result("CC(C)C(=O)Nc1ccc2ccc(-c3nnc4ccc([C@@H](N5CC[C@H](O)C5)C(F)(F)F)cn34)nc2c1")
0.21
>>> reported_result("CC(C)(C)C(=O)OCCOc1cc2nc(-c3nnc4ccc([C@@H](N5CC[C@H](N)C5)C(F)(F)F)cn34)ccc2cc1F")
0.14
>>> reported_result("CCCCCNC1CCCCC1Nc1nc2c(Br)c(Br)c(Br)c(Br)c2[nH]1 (stereo not drawn)")
2.08
>>> reported_result("CCn1c(N2CCNCC2)nc2c(Br)c(Br)c(Br)c(Br)c21")
0.82
>>> reported_result("NC1CC(CF)CN(c2ccncc2NC(=O)c2csc(-c3c(F)cccc3F)n2)C1 (stereo not drawn)")
0.00
>>> reported_result("C[C@H]1C[C@@H](c2ccncc2NC(=O)c2ccc(F)c(-c3c(F)cc4c(c3F)OCC[C@@]4(C)O)n2)C[C@@H](N)[C@@H]1O")
-1.40
>>> reported_result("CCC(CC)C(=O)OCCOc1cc2nc(-c3nnc4ccc([C@@H](N5CC[C@H](N)C5)C(F)(F)F)cn34)ccc2cc1F")
0.97

----------
Assay read-out IC50 on Serine/threonine-protein kinase pim-1 (Homo sapiens, UniProt P11309); records merged from the literature.
measured-endpoint: IC50 (nM)

>>> reported_result("CCOc1cccc2ccc(-c3nnc4ccc([C@@H](N5CC[C@H](N)C5)C(F)(F)F)cn34)nc12")
0.16
>>> reported_result("CCNCc1ccn2c(-c3ccc4cccc(N5CCC(CN)CC5)c4n3)nnc2c1")
3
>>> reported_result("C[C@@H]1C[C@H](N)C[C@H](c2ccncc2NC(=O)c2ccc(F)c(-c3c(F)cc(C4(O)CCC4)cc3F)n2)C1")
0.02
>>> reported_result("C[C@H]1CN(c2ccncc2NC(=O)c2ccc(F)c(-c3c(F)cc(C4(O)CCC4)cc3F)n2)C[C@@H](N)[C@@H]1O")
0.01
>>> reported_result("N[C@H]1C[C@H](OC(=O)c2ccccc2)CN(c2ccncc2NC(=O)c2csc(-c3c(F)cccc3F)n2)C1")
2220
>>> reported_result("COCCCOc1cc(F)c(-c2nc(C(=O)Nc3cnccc3[C@@H]3C[C@H](C)C[C@H](N)C3)ccc2F)c(F)c1")
0.01
>>> reported_result("C[C@@H](O)COc1cccc2ccc(-c3nnc4ccc([C@@H](N5CC[C@H](N)C5)C(F)(F)F)cn34)nc12")
0.18
>>> reported_result("NC(=O)c1ccc(-c2c(-c3cccc(OC(F)(F)F)c3)cc3n2C(CCO)CNC3=O)cc1 (stereo not drawn)")
7
>>> reported_result("COCCOc1ccn2c(-c3ccc4cccc(N5CCNCC5)c4n3)nnc2c1")
255
>>> reported_result("COCCc1cc(F)c(-c2nc(C(=O)Nc3cnccc3[C@@H]3C[C@H](C)C[C@H](N)C3)ccc2F)c(F)c1")
0.02
>>> reported_result("Nc1cnc(-c2ccccc2F)nc1-c1cc2c(N3CCC[C@H](N)C3)ccnc2cn1")
4
>>> reported_result("CC(C)C(=O)OCCOc1cc2nc(-c3nnc4ccc([C@@H](N5CC[C@H](N)C5)C(F)(F)F)cn34)ccc2cc1F")
0.57
>>> reported_result("C[C@H]1C[C@@H](c2ccncc2NC(=O)c2cccc(-c3c(F)cc(N4CCOCC4)cc3F)n2)C[C@@H](N)[C@@H]1O")
0.02

----------
Assay read-out pIC50 on Serine/threonine-protein kinase pim-1 (Homo sapiens); records merged from the literature.
pIC50: −log10 of the molar value.
Binary classification by pIC50, with 9 as an inclusive lower bound for Condition met; all other cases are Condition not met.

>>> label("N[C@@H]1CCN([C@H](c2ccc3nnc(-c4ccc5cccc(OCC6CC6)c5n4)n3c2)C(F)(F)F)C1 (single isomer, unassigned)")
"Condition met"
>>> label("CN(c1ccccc1)c1nc2c(Br)c(Br)c(Br)c(Br)c2[nH]1")
"Condition not met"
>>> label("O=C1NC(=O)[C@@H](c2cn3c4c(cccc24)CCC3)[C@@H]1c1c[nH]c2ccccc12 (single isomer, unassigned)")
"Condition not met"
>>> label("O=C(c1nc2cc(O)c(O)cc2s1)c1cc(O)c(O)cc1O")
"Condition not met"
>>> label("N[C@H]1CCN([C@H](c2ccc3nnc(-c4ccc5ccc(C6COC6)cc5n4)n3c2)C(F)(F)F)C1")
"Condition met"
>>> label("COCCOc1cc(F)c(-c2nc(C(=O)Nc3cnccc3[C@H]3C[C@@H](N)C[C@@H](C(C)C)C3)ccc2F)c(F)c1")
"Condition met"
>>> label("NCc1cccc(CNc2nc3c(Br)c(Br)c(Br)c(Br)c3[nH]2)c1")
"Condition not met"
>>> label("CCN1CCN(Cc2ccc(Nc3ncc(F)c(-c4ccc5c(c4)C4(CCCC4)C(C)=N5)n3)nc2)CC1")
"Condition not met"
>>> label("N#CC1(c2cc(F)c(-c3nc(C(=O)Nc4cnccc4[C@@H]4CCC[C@H](N)C4)ccc3F)c(F)c2)CCOCC1")
"Condition met"
>>> label("NCC1CCN(c2ccc(F)c3ccc(-c4nnc5ccccn45)nc23)CC1")
"Condition not met"

----------
Assay read-out IC50 on Serine/threonine-protein kinase pim-1 (Homo sapiens, UniProt P11309); records merged from the literature.
Please use T for IC50 under 4 nM and F for everything else, ties included.

>>> label("C[C@H]1CN(c2ccncc2NC(=O)c2ccc(F)c(-c3c(F)cc(CC(C)(C)O)cc3F)n2)C[C@@H](N)[C@@H]1O")
"T"
>>> label("Brc1c(Br)c(Br)c2[nH]c(NC3CCNCC3)nc2c1Br")
"F"
>>> label("C[C@H]1C[C@@H](c2ccncc2NC(=O)c2ccc(F)c(-c3c(F)cc(O[C@H]4CCCOC4)cc3F)n2)C[C@@H](N)[C@@H]1O")
"T"
>>> label("Cc1cc(F)c(-c2nc(C(=O)Nc3cnccc3N3C[C@@H](N)[C@H](O)[C@@H](C)C3)ccc2F)c(F)c1")
"T"
>>> label("C[C@@H]1C[C@H](N)C[C@H](c2ccncc2NC(=O)c2nc(-c3c(F)cc(C4COC4)cc3F)c(F)cc2N)C1")
"T"
>>> label("CO[C@@H](C)COc1ccc2ccc(-c3nnc4ccc([C@H](N5CC[C@](C)(N)C5)C(F)(F)F)cn34)nc2c1")
"T"
>>> label("C[C@@H]1C[C@H](O)C[C@H](c2ccncc2NC(=O)c2csc(-c3c(F)cccc3F)n2)C1")
"T"
>>> label("C=Cc1ccc(F)c(-c2nc(C(=O)Nc3cnccc3[C@H]3C[C@@H](N)[C@H](O)[C@@H](C)C3)ccc2F)c1F")
"T"
>>> label("NC1CCN(c2cccc3ccc(-c4nnc5ccccn45)nc23)CC1")
"F"
>>> label("NC1CC(C(F)(F)F)CN(c2ccncc2NC(=O)c2csc(C3CCCCC3)n2)C1 (centres unmarked)")
"F"
>>> label("Brc1c(Br)c(Br)c2[nH]c(N3CCCC3)nc2c1Br")
"F"
>>> label("COc1ccn2c(-c3ccc4cccc(N5CCC(N)CC5)c4n3)nnc2c1")
"F"
>>> label("N[C@@H]1CN(c2ccncc2NC(=O)c2csc(-c3c(F)cccc3F)n2)CC[C@H]1F")
"T"
>>> label("Nc1ccc(-c2c(F)cccc2F)nc1-c1cc2c(N3CCC[C@@H](N)C3)ccnc2cn1")
"F"
>>> label("Cc1cc(-c2ccnc3cnc(-c4nc(-c5c(F)cccc5F)ccc4N)cc23)cc(N)n1")
"F"
>>> label("C[C@H]1CN(c2ccncc2NC(=O)c2ccc(F)c(-c3c(F)cc(OCC(F)(F)F)cc3F)n2)C[C@@H](N)[C@@H]1O")
"T"
>>> label("Cc1c(C(=O)NC(C)C)ccc2ccc(-c3nnc4ccc([C@@H](N5CC[C@H](N)C5)C(F)(F)F)cn34)nc12")
"T"
>>> label("c1cc(N2CCNCC2)c2nc(-c3nnc4ccccn34)ccc2c1")
"F"
>>> label("C[C@H]1C[C@@H](c2ccncc2NC(=O)c2ccc(F)c(-c3c(F)cc(C4(F)COC4)cc3F)n2)C[C@@H](N)[C@H]1O")
"T"
>>> label("CN1CCN(C2CCN(c3nc4c(Br)c(Br)c(Br)c(Br)c4[nH]3)CC2)CC1")
"F"
>>> label("C[C@H]1C[C@@H](c2ccncc2NC(=O)c2ccc(F)c(-c3c(F)cc(OCC(F)(F)F)cc3F)n2)C[C@@H](N)[C@@H]1O")
"T"
>>> label("C[C@H]1CN(c2ccncc2NC(=O)c2ccc(F)c(-c3c(F)cc(OCC4CC4)cc3F)n2)C[C@@H](N)[C@@H]1O")
"T"
